Exercise: state measured half-life for each of the molecules provided.
# Procedure text: Half life measured in vitro for its stability in human blood
# Assay type: ADME, tissue-based
Numbers only here, please. The scale is min.

Given the molecule COc1ccc2c(c1)S(=O)(=O)N(COC(=O)c1c(Cl)cccc1Cl)C2=O , what is its reported half-life?
5

Given the molecule COc1cc(OC)c2c(c1)S(=O)(=O)N(COC(=O)c1c(Cl)cccc1Cl)C2=O , what is its reported half-life?
30

Given the molecule CCOc1cc(OCC)c2c(c1)S(=O)(=O)N(COC(=O)c1c(Cl)cccc1Cl)C2=O , what is its reported half-life?
98

Given the molecule CCOc1cccc2c1C(=O)N(COC(=O)c1c(Cl)cccc1Cl)S2(=O)=O , what is its reported half-life?
10
